- study_system: METTL14 (Homo sapiens)
- Construct: Following treatment, total cellular proteins were extracted using RIPA buffer; endogenous in cells; host or cells: MV4-11 (MV4.11) human AML cells, ATCC
- Sequence (Q9HCE5 whole entry): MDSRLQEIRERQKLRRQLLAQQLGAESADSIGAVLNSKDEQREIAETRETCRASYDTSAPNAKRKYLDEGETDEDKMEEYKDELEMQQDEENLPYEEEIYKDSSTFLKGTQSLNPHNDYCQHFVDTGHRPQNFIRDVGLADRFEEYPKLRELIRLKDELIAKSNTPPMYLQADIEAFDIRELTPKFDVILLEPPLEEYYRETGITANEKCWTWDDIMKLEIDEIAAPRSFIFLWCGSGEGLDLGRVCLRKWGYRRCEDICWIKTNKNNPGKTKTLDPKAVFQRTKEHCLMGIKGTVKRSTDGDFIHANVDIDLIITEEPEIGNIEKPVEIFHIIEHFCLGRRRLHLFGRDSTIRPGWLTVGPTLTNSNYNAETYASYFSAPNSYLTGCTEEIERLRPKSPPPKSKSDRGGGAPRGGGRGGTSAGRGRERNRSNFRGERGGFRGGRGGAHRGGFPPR
- Sequence (Q86U44 2-580 partner): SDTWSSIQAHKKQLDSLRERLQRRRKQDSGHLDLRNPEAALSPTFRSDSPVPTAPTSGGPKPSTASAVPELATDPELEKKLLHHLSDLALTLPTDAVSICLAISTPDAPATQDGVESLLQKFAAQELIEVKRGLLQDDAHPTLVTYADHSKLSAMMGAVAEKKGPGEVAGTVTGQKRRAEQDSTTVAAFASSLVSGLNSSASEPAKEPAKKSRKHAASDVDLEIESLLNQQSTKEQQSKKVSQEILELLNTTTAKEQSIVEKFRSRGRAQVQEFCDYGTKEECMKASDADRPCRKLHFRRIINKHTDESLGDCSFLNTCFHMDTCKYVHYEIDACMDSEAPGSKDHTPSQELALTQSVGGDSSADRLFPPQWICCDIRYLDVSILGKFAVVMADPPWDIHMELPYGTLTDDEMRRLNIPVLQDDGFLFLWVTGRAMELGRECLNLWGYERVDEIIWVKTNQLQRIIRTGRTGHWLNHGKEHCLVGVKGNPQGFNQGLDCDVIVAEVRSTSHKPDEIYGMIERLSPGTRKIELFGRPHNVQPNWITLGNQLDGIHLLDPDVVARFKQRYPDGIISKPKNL
- assay_protocol: Immunoblotting (Western blot) degradation of METTL14 in MV4-11 cells
- Format: cell-based
- conditions_used: MV4-11 cells, 0.3 µM, 24 h, immunoblotting; nd = no degradation
Property: % reduction in MV4-11 cells, 0.3 µM, METTL14; scope: individual molecules
State the answer as a number, implicitly in %.

| molecule | experimental_value |
| --- | --- |
| CC1(C)CCN(Cc2cc(F)c(N3CC(=O)NC4(CCN(c5cc(NCCCCCC(=O)N6CCN(c7ccc8c(c7)C(=O)N(C7CCC(=O)NC7=O)C8=O)CC6)ncn5)CC4)C3)cc2F)CC1 (stereo not shown) | 36 |
| CC1(C)CCN(Cc2cc(F)c(N3CC(=O)NC4(CCN(c5cc(NCCCCCCCC(=O)N6CCN(c7ccc8c(c7)C(=O)N(C7CCC(=O)NC7=O)C8=O)CC6)ncn5)CC4)C3)cc2F)CC1 (stereo not shown) | 51 |
| CC1(C)CCN(Cc2cc(F)c(N3CC(=O)NC4(CCN(c5cc(NCCCCCCCCC(=O)N6CCN(c7ccc8c(c7)C(=O)N(C7CCC(=O)NC7=O)C8=O)CC6)ncn5)CC4)C3)cc2F)CC1 (stereo not shown) | 39 |

We now examine a further molecule.
Need % reduction in MV4-11 cells, 0.3 µM, METTL14, item CC1(C)CCN(Cc2cc(F)c(N3CC(=O)NC4(CCN(c5cc(NCCCCCCCC(=O)N6CCN(c7ccc8c(c7)CN(C7CCC(=O)NC7=O)C8=O)CC6)ncn5)CC4)C3)cc2F)CC1 (stereo not shown)
40

Where these numbers come from: paper PMC12615518
